System: MCF-12A normal epithelial mammary cells
Assay: cells
Type: cell-based
Details: Homo sapiens, MCF-12A; 24 h incubation, serum-free medium, MTT
Experimental: The IC50 values of the tested compounds are summarized in Table 2 (see also Supplementary Material, Table S2). […]. The chemical compounds were reconstituted in DMSO. For the MTT [3-(4,5-dimethylthiazol-2-yl)-2,5-diphenyltetrazolium bromide] assay, cells were seeded in a 96-well plate (26.000 cells/well) for 48 h. […] The spectrophotometric measure of cells’ viability was performed in a Tecan (SPARK) spectrophotometer at an absorbance wavelength of 570 nm. […]
pIC50: −log10 of the molar value.

Compound	pIC50
NCCCNCCCNCCCNCCCCNC(=O)Cc1c[nH]c2ccccc12 [HO-416b]	4.01
NCCCNCCCCNCCCNCCCNC(=O)Cc1c[nH]c2ccccc12	3.73

###

Test: in vitro
Format: cell-based
Details: human, 100 μΜ, 24 h, MTT; read-out: % viability of MCF 12A
Measured property: viability

Molecule	Measured property	Assay value
NCCCNCCCNCCCNCCCCNC(=O)Cc1c[nH]c2ccccc12 [HO-416b]	viability	50.8%
NCCCNCCCCNCCCNCCCNC(=O)Cc1c[nH]c2ccccc12	viability	69%
